System: IGROV1 ovarian
Experiment: NCI-60 one-dose screen, 48 h
Settings: 10 µM unless noted
About 83,000 compounds went through this panel and 20% of them were active in at least one assay; those are over-represented in the sample as a whole. The source made the active and inactive calls. Rule for the calls: active = growth percent below 10; inactive = the rest.
Valid outcomes are listed here; reply with one: TRUE (active), FALSE (inactive)

>  <MOLECULE>
COc1ccc(/C=C/C(c2cc(OC)c(OC)c(OC)c2)n2cncn2)cc1 (stereo not given)

>  <DISCRETE_LABEL>
FALSE

$$$$
>  <MOLECULE>
O=C1/C(=C/c2ccccn2)NC(=S)N1c1ccccc1Cl

>  <DISCRETE_LABEL>
FALSE

$$$$
>  <MOLECULE>
Cc1nn(-c2ccccc2)c(N)c1N=C1NC(=O)/C(=C/c2ccc(Br)cc2)S1

>  <DISCRETE_LABEL>
FALSE

$$$$
>  <MOLECULE>
O=C(C1CCCCC1)[C@@H]1[C@]2(C(=O)NC3CCCCC32)[C@@H]2CCCN2[C@@]12C(=O)NC1CCC(Cl)CC12 (stereo not given in full)

>  <DISCRETE_LABEL>
TRUE

$$$$

Shifting focus to the molecule that follows.
How did this test come out for O=C(C1=Cc2cc3ccccc3n2Cc2cnnn21)c1ccc(O)cc1 ?
FALSE

Taken from PubChem BioAssay (NCI).
